Where these numbers come from: ChEMBL document CHEMBL1833921

# System: CCRF-CEM
# experiment_notes: Cytotoxicity against human CCRF-CEM cells after 48 hrs by sulforhodamine B assay
# Type: functional
GI50 values, listed per item
Answer format: numeric, µM implied, no suffix.

Field: example entries. Status: answers known.
smi	GI50, µM
COc1ccc(C(=O)c2cc(OC)c(OC)c(OC)c2)c(OC)c1O	0.0288
COc1ccc(C(=O)c2cc(OC)c(O)c(OC)c2)cc1OC	4.05
COc1cc(C(=O)c2ccc3c(c2)oc(=O)n3S(C)(=O)=O)cc(OC)c1OC	3.35

Note: attention shifts to another entry.
The value of GI50 measured for the compound COc1cc(C(=O)c2ccc(OC)c(O)c2OC)cc(OC)c1O turned out to be 0.896
